// endpoint GI50 / system MDA-MB-435 melanoma

Reported GI50 for MDA-MB-435 melanoma, given Nc1nc(-n2cccn2)nc(-n2cccn2)c1Br ?
> 100 µM

Repeat for the following molecule: COc1nccc(-c2c(-c3ccc(F)cc3)ncn2C2CCC(O)CC2)n1 (stereo not given)
> 100 µM

And CC(C)(C)Cn1c(N)nc2ccc(-c3[nH]c(C(C)(C)C)nc3-c3ccc(F)cc3)nc21 ?
13.4 µM

Next up: Cn1cnc2c(F)c(Nc3ccc(Br)cc3Cl)c(C(=O)NOCCO)cc21
0.266 µM

And then Cc1ccc(NC(=O)c2ccnc(C(F)(F)F)c2)cc1-c1cc(OCCO)nc(N2CCOCC2)c1 , what is it?
0.289 µM

----------
# System: COLO 205 colon
# testDetails: NCI tumour cell line growth inhibition, 384-well format; in the data active = GI50 below about 0.43 µM; inactive = the rest
Classes to choose from: true (1) = active, false (0) = inactive

Use these answered entries as a reference point.
{"molecule": "Cc1ccc(NC(=O)c2ccnc(C(F)(F)F)c2)cc1-c1cc(OCCO)nc(N2CCOCC2)c1", "discreteLabel": "true (1)"}
{"molecule": "COc1nccc(-c2c(-c3ccc(F)cc3)ncn2C2CCC(O)CC2)n1 (stereo not given)", "discreteLabel": "false (0)"}
{"molecule": "CC(C)(C)Cn1c(N)nc2ccc(-c3[nH]c(C(C)(C)C)nc3-c3ccc(F)cc3)nc21", "discreteLabel": "false (0)"}
{"molecule": "Nc1nc(-n2cccn2)nc(-n2cccn2)c1Br", "discreteLabel": "false (0)"}

Please examine the following record next.
Hi, sorry to bother you, what did the test record for Cn1cnc2c(F)c(Nc3ccc(Br)cc3Cl)c(C(=O)NOCCO)cc21 ?
true (1)

----------
# Tested on: ACHN renal
# testDetails: NCI tumour cell line growth inhibition, 384-well format
measurementName: TGI (µM)
Give the value in µM but do not write µM after it.

{"smilesRepresentation": "CC(C)(C)Cn1c(N)nc2ccc(-c3[nH]c(C(C)(C)C)nc3-c3ccc(F)cc3)nc21", "testedSystem": "ACHN renal", "measurementName": "TGI", "unitsOfMeasure": "µM", "experimentalResult": 12.3}

Shifting focus to the molecule that follows.
Please look up its TGI: Cc1ccc(NC(=O)c2ccnc(C(F)(F)F)c2)cc1-c1cc(OCCO)nc(N2CCOCC2)c1
12.3
